The following compounds are listed with their measured AC50 values.
# System: HMLE_sh_eGFP viability, CellTiter-Glo luminescence, 72 h
# test: cytotoxicity in HMLE control line with eGFP shRNA, dose response, counter-screen for HMLE_sh_ECad selective toxicity project, cell-based, HMLE_sh_eGFP, luminescence (AID 463074);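 further: counterscreen control line to flag general toxicity for the HMLE_sh_ECad screen; potency for loss of viability as luminescence drops below DMSO wells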
Activity calls are given as the source filed them.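 How the source made its calls: active means AC50 no more than tenfold above the top dose tested, or full inhibition at every dose with a flat fit (cut at about 19 µM in these data); inconclusive means flat curve fit with inhibition between 30% and 70%, or poor fit; inactive means AC50 more than tenfold above the top dose tested.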

>  <compound>
Cc1ccc(C)c(NC(=O)c2cc(-c3ccccc3)nn2-c2ccccc2)c1

>  <AC50>
6.27 µM

$$$$
>  <compound>
COc1cccc(-c2sc3ccc(OC)cc3c2C#CCC(C)O)c1 (stereo not drawn)

>  <AC50>
5.4 µM

$$$$
>  <compound>
COc1ccc(-c2csc3nc(-c4ccccc4F)oc(=O)c23)cc1OC

>  <AC50>
3.86 µM

$$$$
>  <compound>
COc1cccc(C(=O)Nc2ccc(C3CC3(Cl)Cl)cc2)c1 (stereo not drawn)

>  <AC50>
16.4 µM

$$$$
>  <compound>
O=C(Nc1ccn(Cc2ccccc2F)n1)c1ccc(COc2ccccc2Cl)cc1

>  <AC50>
3.52 µM

$$$$
>  <compound>
O=C(Nc1cc(C(F)(F)F)ccc1N1CCCCC1)c1ccc(Br)o1

>  <AC50>
8.32 µM

$$$$
>  <compound>
Cc1ccccc1NC(=O)C(Cl)=C(Cl)Cl

>  <AC50>
7.21 µM

$$$$
>  <compound>
CC1=NN(c2ccccc2)C(=O)/C1=C/c1c(O)n(-c2ccc(F)cc2)[nH]c1=O

>  <AC50>
15.8 µM

$$$$
>  <compound>
COc1ccc(-c2sc3ccccc3c2-c2ccc(O)cc2)cc1

>  <AC50>
6.43 µM

$$$$
>  <compound>
COc1ccc(OC)c(/C=C2\S/C(=N/NC(=O)c3ccc4ccccc4c3)NC2=O)c1

>  <AC50>
9.71 µM

$$$$
>  <compound>
O=C(c1ccc(CSc2ccccc2)cc1)N1CCN(c2ccccc2)CC1

>  <AC50>
9.49 µM

$$$$
>  <compound>
CC(=O)Nc1ccc(-c2csc(NC(=O)Cc3cccc(F)c3)n2)cc1

>  <AC50>
5.64 µM

$$$$
>  <compound>
O=C(Nc1ccc(NC(=S)NC(=O)c2ccccc2Cl)cc1)c1cccc(Cl)c1

>  <AC50>
17.8 µM

$$$$
>  <compound>
COc1ccc(C(=O)Nc2ccc(Nc3ccccc3)cc2)cc1[N+](=O)[O-]

>  <AC50>
4.19 µM

$$$$
>  <compound>
O=Cc1cc2ccccc2nc1SCc1ccc(Cl)cc1

>  <AC50>
5.69 µM

$$$$
>  <compound>
O=C(Nc1ccc(Cn2cccn2)cc1)c1ccc(COc2cccc(Br)c2)cc1

>  <AC50>
0.302 µM

$$$$
>  <compound>
Cc1cc(NCc2ccccn2)n2nc(C)c(-c3ccc(Cl)cc3)c2n1

>  <AC50>
5.92 µM

$$$$
>  <compound>
Cc1ccc(N/N=C/c2ccncc2)cc1

>  <AC50>
7.44 µM

$$$$
>  <compound>
COc1cc2ccccc2cc1C(=O)Nc1ccccc1Cl

>  <AC50>
7.94 µM

$$$$
>  <compound>
COc1ccccc1-c1oc2ccccc2c1C#CC1(N)CCCCC1

>  <AC50>
6.39 µM

$$$$
>  <compound>
Cc1cccc(Nc2nc(-c3ccc(O)cc3O)cs2)n1

>  <AC50>
7.5 µM

$$$$
>  <compound>
Cc1cc(C(=O)NNc2ccc(F)cc2)no1

>  <AC50>
1.68 µM

$$$$
>  <compound>
O=C(Nc1cc(N2CCOCC2)ncn1)NC1(C(F)(F)F)Oc2ccc(Cl)cc2O1 (stereo not drawn)

>  <AC50>
14.7 µM

$$$$
>  <compound>
Cc1ccccc1-c1ccc(CN2CCN(C)C(CCO)C2)cc1 (stereo not drawn)

>  <AC50>
5.43 µM

$$$$
>  <compound>
Clc1ccc(COC(Cn2ccnc2)c2ccc(Cl)cc2Cl)c(Cl)c1 (stereo not drawn)

>  <AC50>
6.47 µM

$$$$
>  <compound>
COc1cc2c(cc1NC(=O)CN(C)Cc1cccc(OC)c1OC)oc1ccccc12

>  <AC50>
3.56 µM

$$$$
>  <compound>
COc1ccc(Nc2nc(-c3cccc([N+](=O)[O-])c3)nc3ccccc23)cc1

>  <AC50>
17.8 µM

$$$$
>  <compound>
CN(C)/N=C/C=C1\CCC/C(=C\c2ccc(F)c(F)c2)C1=O

>  <AC50>
10.5 µM

$$$$
>  <compound>
CCOc1ccccc1N(C(=O)Nc1ccc(Cl)cc1)C1=NCCS1

>  <AC50>
> 19.5 µM (inactive)

$$$$
>  <compound>
CC(=O)O[C@H]1[C@H]2O[C@]23[C@@H]2CC[C@]4(O)C[C@@H](O)CC[C@]4(C)C2CC[C@]3(C)[C@H]1c1ccc(=O)oc1 (stereo partly drawn)

>  <AC50>
< 0.16 µM

$$$$
>  <compound>
CC1CCN(CC(CS(=O)(=O)c2ccc([N+](=O)[O-])cc2)N2CCC(C)CC2)CC1 (stereo not drawn)

>  <AC50>
6.58 µM

$$$$
>  <compound>
Cc1ccc2nc(-c3cccc(-c4cccc(Cl)c4)c3)c(NCc3ccccc3)n2c1

>  <AC50>
3.17 µM

$$$$
>  <compound>
O=C(Nc1ccc2c(c1)OCCO2)C(=O)c1c[nH]c2ccccc12

>  <AC50>
1.85 µM

$$$$
>  <compound>
NC1=NC[C@@H](CC2CCCCC2)N1CCc1cc(C(F)(F)F)cc(C(F)(F)F)c1

>  <AC50>
2.74 µM

$$$$
>  <compound>
CC(C)(C)c1ccc(/C=C/C(=O)c2ccc(NC3=NCCCS3)cc2)cc1

>  <AC50>
6.11 µM

$$$$
>  <compound>
O=C(CCOc1ccccc1)N1CCN(c2ccc(O)cc2)CC1

>  <AC50>
3.25 µM

$$$$
>  <compound>
C=C(C)CNC(=S)NNC(=O)CCn1c2ccc(Cl)cc2c2cc(Cl)ccc21

>  <AC50>
1.8 µM

$$$$
>  <compound>
O=C(Oc1ccc(Br)cc1C(=O)/C=C/c1ccccc1F)c1ccco1

>  <AC50>
4.19 µM

$$$$
>  <compound>
O=C(CNC(=O)C(c1ccccc1)c1ccccc1)N/N=C/c1ccc(O)cc1O

>  <AC50>
1.88 µM

$$$$
>  <compound>
Cc1c(CCOC(=O)CC23CC4CC(CC(C4)C2)C3)sc[n+]1CC(=O)c1ccc(Br)cc1

>  <AC50>
2.6 µM

$$$$
>  <compound>
O=C(c1ccc(Cl)cc1)c1c[nH]c(C(=O)NNc2ccccc2)c1

>  <AC50>
1.85 µM

$$$$
>  <compound>
CC1(C)C=Cc2c(ccc3c2OC[C@H](c2ccc(O)cc2O)C3)O1

>  <AC50>
4.43 µM

$$$$
>  <compound>
CC(C)=CCCC1(C)C=Cc2c(ccc3c2[nH]c2cc(O)c(C)cc23)O1 (stereo not drawn)

>  <AC50>
3.58 µM

$$$$
